Test: Ground-state and excited-state acidities of aromatic-amine-based photoacids (Table 1)
Details: pKa* pseudo minus pKa
# maps each entry to its ΔpKa pseudo
Please reply with the number alone, leaving off any unit.

Past entries and their recorded results:
molecule: COc1n[nH]c2ccccc12 [3-methoxyindazole]
ΔpKa pseudo: −2.3

molecule: Nc1ccc2[nH]ccc2c1 [5-aminoindole]
ΔpKa pseudo: −2.1

molecule: O=C(O)c1ccc2[nH]ccc2c1 [indole-5-carboxylic acid]
ΔpKa pseudo: −4.6

molecule: O=C(O)c1c[nH]c2ccccc12 [indole-3-carboxylic acid]
ΔpKa pseudo: −2.5

molecule: O=C(O)c1cccc2[nH]ccc12 [indole-4-carboxylic acid]
ΔpKa pseudo: −4.2

Ask | Recorded ΔpKa pseudo of Nc1ccc2ccccc2c1 [2-naphthylamine] , please.
Reply | −3.2

Ask | Could you do the same for c1ccc(-c2cc(-c3ccccc3)[nH]n2)cc1 [3,5-diphenylpyrazole] , please?
Reply | −0.3

Ask | Could you do the same for O=C(O)c1cc2ccccc2[nH]1 [indole-2-carboxylic acid] , please?
Reply | −4.2

Ask | Could you do the same for c1ccc2c(c1)[nH]c1ccccc12 [carbazole] , please?
Reply | −9.2

====

Test: physchem
Settings: pKa,BH+ (Equation 7), value after the slash
From the text: Assuming that photoluminescence quenching occurs by ESPT from NS—NH2* to OH^−(aq), the data support that when aOH− is small (i.e. at pH less than about 12), ESPT can be quite slow compared to the excited-state lifetime of NS—NH2*, due to mass action (FIG. 2B). […]
endpoint_name: pKa
Please reply with the number alone, leaving off any unit.

Ask | Recorded pKa of `O=C(O)[C@@H]1CCCN1` , please.
Reply | 10.8

====

Experiment: physchem
endpoint_name: pKa
Please reply with the number alone, leaving off any unit.

Ask | Recorded pKa of `O=C(O)[C@@H]1CCCN1` , please.
Reply | 10.8

====

Test: Acid-base titration of aqueous photoacid with absorption and steady-state photoluminescence detection (Henderson-Hasselbalch / Stern-Volmer fits, OH− as quencher)
Settings: aqueous solution, ground-state pKa, aromatic amine, aqueous
endpoint_name: pKa

Ask | Recorded pKa of Nc1cccc2c(S(=O)(=O)[O-])cccc12.[Na+] [NS—NH2, sodium salt] , please.
Reply | > 17

====

Assay: Ground-state and excited-state acidities of aromatic-amine-based photoacids (Table 1)
Conditions: pKa* pseudo minus pKa
# maps each entry to its ΔpKa pseudo

compound_string: Nc1cccc2c1C(=O)c1cccc(N)c1C2=O
ΔpKa pseudo: < −1.7
//
compound_string: Nc1cc2c3ccccc3ccc2c2ccccc12
ΔpKa pseudo: < −1.4

Ask | Recorded ΔpKa pseudo of `Nc1ccc2c(c1)C(=O)c1ccc(N)cc1C2=O` , please.
Reply | < −1.4

Ask | Could you do the same for `Nc1cc2ccccc2cc1N` , please?
Reply | < −3.1

Ask | Could you do the same for `Nc1ccc2c(c1)Cc1cc(N)ccc1-2` , please?
Reply | < −2.1

====

Experiment: Ground-state and excited-state acidities of aromatic-amine-based photoacids (Table 1)
Conditions: pKa* pseudo minus pKa
endpoint_name: ΔpKa pseudo

Past entries and their recorded results:
compound: Nc1ccc(-c2ccccc2)cc1 [4-aminobiphenyl]
ΔpKa pseudo: < −1.25

compound: Nc1ccccc1-c1ccccc1 [2-aminobiphenyl]
ΔpKa pseudo: < −2.9

Ask | Recorded ΔpKa pseudo of Nc1cc2ccccc2c2ccccc12 [9-phenanthrylamine] , please.
Reply | < −1.82

Ask | Could you do the same for Nc1ccc(Nc2ccccc2)cc1 [4-aminodiphenylamine] , please?
Reply | < −4.8

Ask | Could you do the same for Nc1cc2ccccc2cc1C(=O)O [2-amino-3-naphthoic acid] , please?
Reply | < 3.2

Ask | Could you do the same for COc1ccc(N)cc1 [p-anisidine] , please?
Reply | < −2.7

Ask | Could you do the same for Nc1cccc(-c2ccccc2)c1 [3-aminobiphenyl] , please?
Reply | < −3.0

Ask | Could you do the same for Nc1ccc(Nc2ccc(N)cc2)cc1 [4,4′-diaminodiphenylamine] , please?
Reply | < −0.7
